assayDetails: NCI Yeast Anticancer Drug Screen. Data for the bub3 strain (AID 167)
conditionsUsed: S. cerevisiae bub3 mutant strain, at 50.0 µM
This is part of a sample that, as a whole, favours compounds with a hit. Of some 79,000 tested, about 15% had one in any assay. Activity calls are given as the source filed them. Cut-off read from the data, not from the text of the source: active = growth inhibition above about 70%; inactive = the rest.
Labels: active, inactive

O=[N+]([O-])c1ccc(-n2nc3ccc4c(no[n+]4[O-])c3n2)cc1 = inactive
CCC12C=CCN3CCC4(C(=C(C(=O)OC)C1)Nc1ccccc14)[C@H]32 (stereo partly drawn) = inactive
O=C1C=CC(=Nc2ccc(N(CCCl)CCCl)cc2)C=C1 = inactive
CC1CN1C(=O)NCCCCCCNC(=O)N1CC1C (stereo not drawn) = inactive
N#Cc1ccc([N+](=O)[O-])cc1 = inactive
Oc1ccccc1C=NCCN=Cc1ccccc1O.[Fe] = inactive
CC(=O)[O-].CC(=O)[O-].O=C(N/N=C/c1cc(Cl)cc(Cl)c1O)c1ccncc1.[Cu+2] = inactive
Cn1c[n+](C)nn1 = inactive
Oc1ccc(C(c2cc3c(cc2O)OCO3)N2CCNCC2)cc1 (stereo not drawn) = inactive
NCc1c[nH]c2ccccc12 = inactive
CCOP(=O)(OCC)Oc1ccc(SC)cc1 = inactive
Cc1ncc(CNC(=O)N(CCCl)N=O)c(N)n1 = inactive
O=C(c1ccc(Cl)cc1)N1CCOCC1 = inactive
CC(N)Cc1c[nH]c2ccccc12 (stereo not drawn) = inactive
CC(=O)[O-].CC(=O)[O-].O=C(N/N=C/c1cc(Cl)cc(Cl)c1O)c1ccncc1.[Ni+2] = inactive
O=C1NC(=S)NC(=O)C1=Cc1ccncc1 = inactive
NNC(N)=O = inactive
C1C2CC3C1C1CN3C21 (stereo not drawn) = inactive
O=NN(CCCl)C(=O)O = inactive
N#CC(C#N)=Cc1cccc(F)c1 = inactive
COc1ccccc1[As](=O)(O)c1ccccc1 = inactive
CC(C)(C)SCC(NC(=O)OCc1ccccc1)C(=O)O (stereo not drawn) = inactive
[C-]#[O+].[C-]#[O+].[C-]#[O+].[C-]#[O+].[Cr].c1ccc([As](CC[As](c2ccccc2)c2ccccc2)c2ccccc2)cc1 = inactive
Cc1c2ccncc2c(C)c2c1[nH]c1ccccc12 = active
O=C(c1ccccc1)N1CC1 = inactive
COc1ccc2c3c1OC1C(OC)(OC)C=C[C@@]4(Br)[C@@H](C2)N(CC2CC2)CC[C@]314 (stereo partly drawn) = inactive
CNC(C)Cc1ccccc1OC (stereo not drawn) = inactive
Cc1cc(S(=O)(=O)F)ccc1O = inactive
N#CN=C(N)NC#N = inactive
O=NNc1ccc(C(F)(F)F)cn1 = inactive
CCCCNC(=O)CCl = inactive
O=C(COc1cccc(Cl)c1)NCc1ccccc1NC(=O)c1ccc(S(=O)(=O)F)cc1 = active
Clc1cccc2nncc(N3CC3)c12 = inactive
COC(=O)CCSP(=S)(Oc1ccccc1)Oc1ccccc1 = inactive
COc1ccc2c(c1O)[C@@]13CCCC=C1[C@@H](C2)[N+](C)(C)CC3 = inactive
[N-]=[N+]=NC(=O)Nc1ccccc1F = inactive
Cc1ccc(OP(=O)(Oc2ccc(C)cc2)Oc2ccc(C)cc2)cc1.Cc1ccc(OP(=O)(Oc2ccc(C)cc2)Oc2ccc(C)cc2)cc1.Cc1ccc(OP(=O)(Oc2ccc(C)cc2)Oc2ccc(C)cc2)cc1.Cc1ccc(OP(=O)(Oc2ccc(C)cc2)Oc2ccc(C)cc2)cc1.[Cr+3].[O-][Cl+3]([O-])([O-])O = inactive
Cc1cc2[nH]c3c(C#N)c(OC(=O)N(C)C)c(-c4ccccc4)c(=O)n3c2cc1C = inactive
N.N.N.N.N.[Co+3].[I-].[N-]=[N+]=[N-] = inactive
C1=C[N-]c2c3c(ccc2=C1)=CC=C[N-]3.C1=C[N-]c2c3c(ccc2=C1)=CC=C[N-]3.C1=C[N-]c2c3c(ccc2=C1)=CC=C[N-]3.[Co+3].[O-][Cl+3]([O-])([O-])O = inactive
Nc1c(Cl)c(Cl)nc(C(=O)O)c1Cl = inactive
CN1CN(c2ccccc2)C2(CCN(Cc3csc4ccccc34)CC2)C1=O = inactive
Cc1cc(C)c(CCl)cc1CCl = inactive
COc1ccc2c(c1)C1(C=N2)CCN(C(C)=O)CC1 = inactive
O=NNc1ncc([N+](=O)[O-])cn1 = inactive
Cc1cc(C)c(O)c(CN2CCCCC2)c1 = inactive
CCCCOP(=O)(Nc1ccc(Cl)cc1)OCCCC = active
COC[C@H]1OC(=O)c2coc3c2[C@@]1(C)C1=C(C3=O)[C@@H]2CCC(=O)[C@@]2(C)C[C@H]1OC(C)=O = active

Where these numbers come from: PubChem BioAssay (NCI)
